For each entry below, report its growth value.
Test system: SN12C renal
assayRemarks: NCI-60 one-dose screen, 48 h (100 = growth as untreated, 0 = no growth, -100 = all killed)
conditionSet: 10 µM unless noted
Compounds without any hit were thinned out: in the full panel of roughly 83,000, 20% have a hit.
Reply numerically in %, unit not repeated.

## Task Would you mind telling me what growth value was observed for COc1ccc(-c2c[nH]c(C(=O)O)c2-c2cc(OC)c(OC)c(OC)c2)cc1 ?
## Result 43.9

## Task Would you mind telling me what growth value was observed for C=C1C(=O)O[C@@H]2[C@H]3[C@H](COC(C)=O)[C@@H](OC(C)=O)C[C@H]3C(=C)[C@@H](O)C[C@@H]12 ?
## Result 92.9

## Task Would you mind telling me what growth value was observed for COC1=CC(c2ccc[nH]2)=N/C1=C\c1[nH]c(C)c(C(=O)Oc2ccccc2)c1C ?
## Result 0.383

## Task Would you mind telling me what growth value was observed for COc1ccc(/C=C2\COc3ccc(O)c(O)c3C2=O)c(OC)c1OC ?
## Result 0.808

## Task Would you mind telling me what growth value was observed for CC(=O)c1c(C)nc(SCC(=O)Nc2ccc(Cl)cc2)n1-c1ccc(Cl)cc1 ?
## Result 87

## Task Would you mind telling me what growth value was observed for CC1(Cc2ccccc2)CC2=C(C(=O)O1)C(c1ccccc1)NC(=O)N2 (centres undefined) ?
## Result 104

## Task Would you mind telling me what growth value was observed for Cc1nc2sc(C(=O)Nc3cccc4ccccc34)c(N)c2cc1C(=O)/C=C/c1ccccc1 ?
## Result -44.3

## Task Would you mind telling me what growth value was observed for O=C(Nc1ncc(Cc2cccc(C(F)(F)F)c2)s1)c1ccc2c(c1)OCCO2 ?
## Result 35.3

## Task Would you mind telling me what growth value was observed for CCCCCC#CC1OC23CCCCC2C(C#N)(C(=N)O3)C1(C#N)C#N (centres undefined) ?
## Result 93
